TARGET_OR_SYSTEM: Sentrin-specific protease 6 (Homo sapiens, UniProt Q9GZR1);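 further: Luminescence-based dose-response confirmatory assay of SENP6 inhibition, following up an ultra-high-throughput screen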
Sequence (Q9GZR1 whole entry): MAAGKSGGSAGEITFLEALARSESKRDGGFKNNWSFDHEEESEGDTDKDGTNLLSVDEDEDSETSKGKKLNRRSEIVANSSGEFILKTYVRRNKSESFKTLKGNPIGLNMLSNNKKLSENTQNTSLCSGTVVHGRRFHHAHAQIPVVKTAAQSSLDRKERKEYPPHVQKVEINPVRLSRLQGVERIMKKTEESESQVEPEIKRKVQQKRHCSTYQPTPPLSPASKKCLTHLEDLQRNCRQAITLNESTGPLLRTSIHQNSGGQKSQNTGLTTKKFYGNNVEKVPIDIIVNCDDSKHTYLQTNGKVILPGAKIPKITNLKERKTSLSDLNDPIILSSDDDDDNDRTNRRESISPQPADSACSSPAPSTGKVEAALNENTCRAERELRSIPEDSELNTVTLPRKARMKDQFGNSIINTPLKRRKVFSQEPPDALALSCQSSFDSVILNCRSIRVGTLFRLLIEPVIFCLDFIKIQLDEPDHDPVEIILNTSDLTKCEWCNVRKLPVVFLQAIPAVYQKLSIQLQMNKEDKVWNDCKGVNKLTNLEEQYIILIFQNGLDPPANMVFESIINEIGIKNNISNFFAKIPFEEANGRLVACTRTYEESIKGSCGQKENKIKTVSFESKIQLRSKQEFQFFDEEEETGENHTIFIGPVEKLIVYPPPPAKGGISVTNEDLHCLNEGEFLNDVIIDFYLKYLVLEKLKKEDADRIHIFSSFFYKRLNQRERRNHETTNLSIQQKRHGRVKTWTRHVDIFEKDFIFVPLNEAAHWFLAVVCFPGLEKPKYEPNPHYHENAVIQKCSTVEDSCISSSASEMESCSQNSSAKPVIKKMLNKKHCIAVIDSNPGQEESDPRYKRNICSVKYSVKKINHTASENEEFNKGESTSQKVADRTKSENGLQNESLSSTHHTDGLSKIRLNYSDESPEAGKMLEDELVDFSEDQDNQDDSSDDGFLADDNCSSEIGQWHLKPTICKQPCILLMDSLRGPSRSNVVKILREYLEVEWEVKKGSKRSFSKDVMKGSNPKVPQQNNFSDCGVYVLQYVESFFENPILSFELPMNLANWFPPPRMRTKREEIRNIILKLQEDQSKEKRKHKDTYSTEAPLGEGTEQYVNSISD
Format: functional
Calls of active or inactive are those of the source.
READOUT_TYPE: IC50

Previously resolved entries follow.
- CHEMICAL_SMILES: "O=C(O)c1ccc(N/N=C/c2ccc(-c3cc(Cl)ccc3Cl)o2)cc1"
  IC50: "> 100 µM (inactive)"
- CHEMICAL_SMILES: "CC(C)(C)c1ccc(OCc2nc(-c3ccccn3)no2)c(Br)c1"
  IC50: "17.6 µM (active)"

Asked: What does the data say about its IC50? Entry: Cc1cccc(-c2noc(-c3c(C)noc3C)n2)c1
Given back: > 100 µM (inactive)

Asked: What does the data say about its IC50? Entry: Cc1ccc(Cn2ccs/c2=N\C(=O)COC(=O)c2ccc(O)cc2O)cc1
Given back: 10.6 µM (active)

Asked: What does the data say about its IC50? Entry: O=C1C(=O)c2ccccc2C(O)=C1CCCCl
Given back: 7.23 µM (active)

Asked: What does the data say about its IC50? Entry: Clc1ccsc1-c1csc(-c2cccnc2)n1
Given back: 11.3 µM (active)

Asked: What does the data say about its IC50? Entry: Cc1csc(NC(=O)c2ccc(Br)s2)n1
Given back: 24.9 µM (active)

Asked: What does the data say about its IC50? Entry: Cc1ccc(C(=O)OCC(=O)c2ccc(Cl)s2)s1
Given back: 24.6 µM (active)

Asked: What does the data say about its IC50? Entry: O=C1C=C(Nc2ccccc2C(=O)O)c2ccccc2C1=O
Given back: 2 µM (active)

Asked: What does the data say about its IC50? Entry: CC(C)(C)c1cc[n+](C2=C([N-]S(=O)(=O)c3ccccc3)C(=O)c3ccccc3C2=O)cc1
Given back: 8.45 µM (active)

Asked: What does the data say about its IC50? Entry: c1ccc(Nc2nc(-c3ccccc3)ns2)cc1
Given back: 2.19 µM (active)

Asked: What does the data say about its IC50? Entry: COc1ccc(NC(=S)Nc2ccc3nsnc3c2)cc1
Given back: 2.3 µM (active)

Asked: What does the data say about its IC50? Entry: CNC(=S)Nc1ccc(-c2nc3ccc(C)cc3s2)cc1
Given back: 5.18 µM (active)
